Data provenance: paper PMC1968602

Assay Name: clinical
Condition Set: human, in vivo, 90 mg

Compound	half-life
CCc1c2c(nc3ccc(O)cc13)-c1cc3c(c(=O)n1C2)COC(=O)[C@]3(O)CC [SN-38, 7-ethyl-10-hydroxycamptothecin]	22.1 h

* * *

Assay Name: clinical
Condition Set: human, in vivo, 80 mg
Measured Parameter: AUC

Molecule	Recorded Result
CCc1c2c(nc3ccc(O)cc13)-c1cc3c(c(=O)n1C2)COC(=O)[C@]3(O)CC [SN-38, 7-ethyl-10-hydroxycamptothecin]	216 ng·h/mL
